METHOD DESCRIPTION: Pharmacokinetics in CD-1 mice (plasma concentrations, PK parameters)
Assay type: in vivo
CONDITIONS USED: CD-1, mouse, plasma, sc, 30 mg/kg, mouse (CD1) sc 30 mg/kg; 24 h; Mean; read-out: Concentration
ENDPOINT LABEL: concentration at 24 h (ng/mL)

a: O=C1CCC(N2C(=O)c3cccc(NCCOCCOCCNCc4ccc(-n5cc(NC(=O)c6coc(-c7ccnc(NCC8CC8)c7)n6)c(C(F)F)n5)cc4)c3C2=O)C(=O)N1 (centres unmarked) [I-210]
b: NC(=O)c1nn(-c2ccc(C(=O)NCCCCCNCCNc3cccc4c3C(=O)N(C3CCC(=O)NC3=O)C4=O)cc2)cc1NC(=O)c1coc(-c2ccnc(NCC(F)(F)F)c2)n1 (centres unmarked) [I-172]
Qu. Hey, which is lower on measured concentration at 24 h, a or b ? Reply briefly: the label of your chosen item.
Ans. a

----------
EXPERIMENTAL SYSTEM: IRAK4 (Homo sapiens, UniProt Q9NWZ3)
Sequence (Q9NWZ3 whole entry): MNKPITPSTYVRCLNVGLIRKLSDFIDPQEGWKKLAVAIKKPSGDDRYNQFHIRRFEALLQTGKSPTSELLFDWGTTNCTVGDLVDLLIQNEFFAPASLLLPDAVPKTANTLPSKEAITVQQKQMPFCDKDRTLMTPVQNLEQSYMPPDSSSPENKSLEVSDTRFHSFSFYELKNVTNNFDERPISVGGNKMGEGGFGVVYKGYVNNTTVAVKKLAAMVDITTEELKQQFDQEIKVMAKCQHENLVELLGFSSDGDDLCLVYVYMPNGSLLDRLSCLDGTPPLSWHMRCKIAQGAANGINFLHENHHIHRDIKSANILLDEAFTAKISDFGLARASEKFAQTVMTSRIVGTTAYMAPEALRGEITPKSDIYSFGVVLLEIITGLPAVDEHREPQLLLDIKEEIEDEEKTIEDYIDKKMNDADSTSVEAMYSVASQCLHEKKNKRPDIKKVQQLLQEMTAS
METHOD DESCRIPTION: OCI-LY-10 degradation assay (western blot, % IRAK4 degraded after 4 hours)
Assay type: cell-based
Design: endogenous in cells; host or cells: OCI-LY10
CONDITIONS USED: OCI-LY10 cells, 4 hours, 1 uM compound
ENDPOINT LABEL: OCI-LY10 % IRAK4 Degradation (1 uM)

Below, each entry is followed by its recorded OCI-LY10 % IRAK4 Degradation (1 uM) result.
compound="NC(=O)c1nn(-c2ccc(C(=O)NCCOCCOCCCc3cccc4c3C(=O)N(C3CCC(=O)NC3=O)C4=O)cc2)cc1NC(=O)c1coc(-c2ccnc(NCC(F)(F)F)c2)n1 (stereo not drawn) [I-233]" experimental_system="IRAK4 (Homo sapiens, UniProt Q9NWZ3)" endpoint_label="OCI-LY10 % IRAK4 Degradation (1 uM)" experimental_result="A (>50% degradation)"
compound="O=C1CCC(N2C(=O)c3cccc(NCCOCCN4CCO[C@H](CNCc5ccc(-n6cc(NC(=O)c7coc(-c8ccnc(NCC9CC9)c8)n7)c(C(F)F)n6)cc5)C4)c3C2=O)C(=O)N1 (stereo partly drawn) [I-329]" experimental_system="IRAK4 (Homo sapiens, UniProt Q9NWZ3)" endpoint_label="OCI-LY10 % IRAK4 Degradation (1 uM)" experimental_result="A (>50% degradation)"
compound="CN(CCCc1cccc2c1C(=O)N(C1CCC(=O)NC1=O)C2=O)Cc1ccc(-n2cc(NC(=O)c3coc(-c4ccncc4)n3)c(C(F)F)n2)cc1 (stereo not drawn) [I-365]" experimental_system="IRAK4 (Homo sapiens, UniProt Q9NWZ3)" endpoint_label="OCI-LY10 % IRAK4 Degradation (1 uM)" experimental_result="C (<20% degradation)"
compound="CN(CCOCCCc1cccc2c1C(=O)N(C1CCC(=O)NC1=O)C2=O)Cc1ccc(-n2cc(NC(=O)c3coc(-c4ccnc(NCC5CC5)c4)n3)c(C(F)F)n2)cc1 (stereo not drawn) [I-362]" experimental_system="IRAK4 (Homo sapiens, UniProt Q9NWZ3)" endpoint_label="OCI-LY10 % IRAK4 Degradation (1 uM)" experimental_result="A (>50% degradation)"
compound="O=C1CCC(N2C(=O)c3cccc(NCCOCCOCCOCCOCCn4cc(NC(=O)c5coc(-c6ccnc(NCC7CC7)c6)n5)c(C(F)F)n4)c3C2=O)C(=O)N1 (stereo not drawn) [I-254]" experimental_system="IRAK4 (Homo sapiens, UniProt Q9NWZ3)" endpoint_label="OCI-LY10 % IRAK4 Degradation (1 uM)" experimental_result="B (>20-50% degradation)"
compound="O=C1CCC(N2C(=O)c3cccc(NCCOCCOCCNC(=O)c4ccc(-n5cc(NC(=O)c6coc(-c7ccnc(NCC8CC8)c7)n6)c(C(F)F)n5)cc4)c3C2=O)C(=O)N1 (stereo not drawn) [I-246]" experimental_system="IRAK4 (Homo sapiens, UniProt Q9NWZ3)" endpoint_label="OCI-LY10 % IRAK4 Degradation (1 uM)" experimental_result="A (>50% degradation)"
compound="O=C1CCC(N2C(=O)c3cccc(CCCNC(=O)c4ccc(-n5cc(NC(=O)c6coc(-c7ccncc7)n6)c(C(F)F)n5)cc4)c3C2=O)C(=O)N1 (stereo not drawn) [I-255]" experimental_system="IRAK4 (Homo sapiens, UniProt Q9NWZ3)" endpoint_label="OCI-LY10 % IRAK4 Degradation (1 uM)" experimental_result="C (<20% degradation)"
compound="CC(C)(C)[C@H](NC(=O)COCCOCCOCCNc1cccc2c1C(=O)N(C1CCC(=O)NC1=O)C2=O)C(=O)N1C[C@H](O)C[C@H]1C(=O)NCc1ccc(-n2cc(NC(=O)c3coc(-c4ccnc(NCC5CC5)c4)n3)c(C(F)F)n2)cc1 (stereo partly drawn) [I-284]" experimental_system="IRAK4 (Homo sapiens, UniProt Q9NWZ3)" endpoint_label="OCI-LY10 % IRAK4 Degradation (1 uM)" experimental_result="C (<20% degradation)"

Qu. Tell me its OCI-LY10 % IRAK4 Degradation (1 uM) given NC(=O)c1nn(-c2ccc(CNCCOCCOCCn3c(=O)n(C4CCC(=O)NC4=O)c4ccccc43)cc2)cc1NC(=O)c1coc(-c2ccnc(NCC3CC3)c2)n1 (stereo not drawn) [I-319] as the entry.
Ans. A (>50% degradation)

Qu. Using known records, supply OCI-LY10 % IRAK4 Degradation (1 uM) for CN(CCOCCOCCCc1ccc2c(c1)C(=O)N(C1CCC(=O)NC1=O)C2=O)C(=O)c1ccc(-n2cc(NC(=O)c3coc(-c4ccnc(NCC5CC5)c4)n3)c(C(N)=O)n2)cc1 (stereo not drawn) [I-228]
Ans. A (>50% degradation)

Qu. Assign OCI-LY10 % IRAK4 Degradation (1 uM) to the following record: Cn1cc(NC(=O)c2coc(-c3ccnc(NCC(F)(F)F)c3)n2)c(C(=O)NCCCOCC(C)(C)COCCCc2cccc3c2n(C)c(=O)n3C2CCC(=O)NC2=O)n1 (stereo not drawn) [I-297]
Ans. C (<20% degradation)

Qu. Find the measured OCI-LY10 % IRAK4 Degradation (1 uM) of O=C1CCC(N2C(=O)c3cccc(NCCOCCN4CCO[C@@H](CNC(=O)c5ccc(-n6cc(NC(=O)c7coc(-c8ccnc(NCC(F)(F)F)c8)n7)c(C(F)F)n6)cc5)C4)c3C2=O)C(=O)N1 (stereo partly drawn) [I-282] and report it.
Ans. C (<20% degradation)

Qu. Tell me OCI-LY10 % IRAK4 Degradation (1 uM) reported for O=C1CCC(N2C(=O)c3ccc(CCCOCCNCc4ccc(-n5cc(NC(=O)c6coc(-c7ccncc7)n6)c(C(F)F)n5)cc4)cc3C2=O)C(=O)N1 (stereo not drawn) [I-382]
Ans. B (>20-50% degradation)

Qu. Please indicate OCI-LY10 % IRAK4 Degradation (1 uM) recorded for O=C1CCC(N2C(=O)c3cccc(N4CCN(CCOCCOCCNCc5ccc(-n6cc(NC(=O)c7coc(-c8ccnc(NCC9CC9)c8)n7)c(C(F)F)n6)cc5)CC4)c3C2=O)C(=O)N1 (stereo not drawn) [I-336]
Ans. B (>20-50% degradation)
